- system: T1, ROR1 extracellular domain Fc fusion:Fc heterodimer, monomer (human)
- T1 construct: Heterodimer of one ROR1 ECD-Fc chain and one Fc chain; also called ROR1 monomer; hROR1 monomeric ECD-Fc fusion protein; not shown: Fc part; Fc alone
- T1 sequence (Q01973 30-406, one chain of several): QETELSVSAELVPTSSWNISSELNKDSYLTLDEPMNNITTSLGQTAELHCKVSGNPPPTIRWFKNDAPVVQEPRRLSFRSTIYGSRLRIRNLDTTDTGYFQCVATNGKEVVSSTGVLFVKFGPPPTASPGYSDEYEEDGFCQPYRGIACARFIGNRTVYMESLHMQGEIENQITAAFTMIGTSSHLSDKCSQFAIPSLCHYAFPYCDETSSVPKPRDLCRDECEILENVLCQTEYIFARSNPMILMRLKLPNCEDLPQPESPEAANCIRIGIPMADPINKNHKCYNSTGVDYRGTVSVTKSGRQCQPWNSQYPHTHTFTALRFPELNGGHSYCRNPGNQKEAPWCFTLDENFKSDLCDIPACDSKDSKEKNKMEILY
- experimental.protocol: SPR, immobilised ROR1 monomer, antibody injected, 1:1 model
- Procedure: The binding affinities of ROR1 extracellular domain dimer and monomer for anti-ROR1 antibodies were determined by surface plasmon resonance (SPR). […] The association constant, dissociation constant, and affinity of each anti-ROR1 antibody was calculated using the Biacore T200 Evaluation Software 1:1 binding model. […]
measured.parameter: log10 of koff (log10 of the value in s⁻¹)
Parameter value (number): base-10 log of koff in s⁻¹.

Sample Antibody 601-50 (antibody, V domains shown) VH: QVQLQQSGAEVKKPGASVKVSCKASGYTFSRYYIHWVRRAPGQGLEWMGLINPGGGSTNYAQKFQGRVTMTRDTSTNTVYLELSSLRSDDTAVYYCARDYGTIDARRFDFWGQGTLVTVSS VL: QSALTQPPSASGTPGQRVTISCPGSSSNIGSNYVYWYQQLPGTAPKLLIYRNNQRPSGVPDRFSGSKSGTSATLGITGLQTGDEADYYCGTWDSSLSAYVFGTGTKVTVL ; log10 of koff observed: -2.80

Sample Antibody 601-9 (antibody, V domains shown) VH: QLQLQESGPGVVKPSGTLSLTCTVSGGSISRSDGYWGWVRQPPGKGLEWIGSIYDTGTTYYSPSLKSRLIISVDTSKNQFSLTLNSVTAADTAVYYCASMGGLRSSSSDAFHTWGPGTMVTVSS VL: QSVLTQPPSVSVAPGETARITCGGTNIGSESVHWYQQRPGQAPVLVVYDDTDRPSGIPERFSGSNSGNTATLTISRVEAGDGADYYCQVWDSVSDRYVFGTGTKVTVL ; log10 of koff observed: -1.77

Sample Antibody 601-37 (antibody, V domains shown) VH: EVQLVQSGAEVKKPGASVKVSCKASGYTFNNYGFSWVRQAPGQGLEWMGWISVYNGNTNYAQKLQGRVTMTTDTSTSTAYMELRSLRSDDTAVYYCARDYYSDSSGYWDDAFDIWGQGTMVTVSS VL: AIRMTQSPSSLSASVGDRVTITCQASQDISNYLNWYQQKPGKAPKLLIYAASSLQSGVPSRFSGSGSGTDFTLTISSLQPEDFATYYCQQSYSTPFTFGPGTKVDIK ; log10 of koff observed: -2.57

// input: 2 binders below; output: log10 of koff for each
1. Antibody 601-66 (antibody, V domains shown) VH: QVQLVQSGAEVKEPGASVKVSCKASGYTFRNSGITWVRQAPGQGLEWMGWINPNSGGAMYVDNFQGRATMTRDTSINTAYMELRSLSSDDTAVYYCARGMADLIDVFDIWGQGTLVTVSS VL: TQPALTQPASVSGSPGQSITISCTGTSSDFGDYDYVSWYQQHPGKAPKLMIYDVSDRPSGVSNRFSGSKSGNTASLTISGLQAEDEADYFCSSFTTSSTLVFGGGTKLTVL
2. Antibody 601-14 (antibody, V domains shown) VH: QVQLVQSGAEVKKPGESLKISCKDSGYSFTNYWLGWVRQMPGKGLEWMGIIYPGDSDTRYSPSFRGQVTISADKSISTAYLQWSSLKASDTAMYYCARLNLATHTAFDIWGQGTTVTVSS VL: QSVLTQPASVSGSPGQSITISCTGTSSDVGGYNYVSWYQQHPGKAPKLMIYDVSNRPSGVSNRFSGSKSGNTASLTISGLQAEDEADYYCSSYTSSSTLWVFGGGTKLTVLG

[out]
1: -2.23; 2: -2.89

The values you see were collected from patent US20180009892A1.
